Data provenance: patent US11673876B2

Kindly supply the reported Cmax values for the records listed here.
# test.name: Pharmacokinetics in dogs, single IV or oral administration
# Assay type: in vivo, dog
# protocol.conditions: blood, 5 mg/kg; dog, oral, 5 mpk
Give your result as the value with the unit written after it.

Endpoint output: Cmax of C[C@@H](Nc1ncnc2ccc(-c3cnc(Cl)c(NS(C)(=O)=O)c3)cc12)c1ccccc1 [Compound 2R] . Value?
7090 ng/mL

CS(=O)(=O)Nc1cc(-c2ccc3ncnc(Nc4ccc(F)c(Cl)c4)c3c2)cnc1Cl [Comparative Compound 2, reference compound] ?
716 ng/mL

* * *

Kindly supply the reported inhibition at 0.1 µM values for the records listed here.
# study.system: EGFR (Homo sapiens (Human), UniProt P00533)
# Sequence (P00533 25-1210): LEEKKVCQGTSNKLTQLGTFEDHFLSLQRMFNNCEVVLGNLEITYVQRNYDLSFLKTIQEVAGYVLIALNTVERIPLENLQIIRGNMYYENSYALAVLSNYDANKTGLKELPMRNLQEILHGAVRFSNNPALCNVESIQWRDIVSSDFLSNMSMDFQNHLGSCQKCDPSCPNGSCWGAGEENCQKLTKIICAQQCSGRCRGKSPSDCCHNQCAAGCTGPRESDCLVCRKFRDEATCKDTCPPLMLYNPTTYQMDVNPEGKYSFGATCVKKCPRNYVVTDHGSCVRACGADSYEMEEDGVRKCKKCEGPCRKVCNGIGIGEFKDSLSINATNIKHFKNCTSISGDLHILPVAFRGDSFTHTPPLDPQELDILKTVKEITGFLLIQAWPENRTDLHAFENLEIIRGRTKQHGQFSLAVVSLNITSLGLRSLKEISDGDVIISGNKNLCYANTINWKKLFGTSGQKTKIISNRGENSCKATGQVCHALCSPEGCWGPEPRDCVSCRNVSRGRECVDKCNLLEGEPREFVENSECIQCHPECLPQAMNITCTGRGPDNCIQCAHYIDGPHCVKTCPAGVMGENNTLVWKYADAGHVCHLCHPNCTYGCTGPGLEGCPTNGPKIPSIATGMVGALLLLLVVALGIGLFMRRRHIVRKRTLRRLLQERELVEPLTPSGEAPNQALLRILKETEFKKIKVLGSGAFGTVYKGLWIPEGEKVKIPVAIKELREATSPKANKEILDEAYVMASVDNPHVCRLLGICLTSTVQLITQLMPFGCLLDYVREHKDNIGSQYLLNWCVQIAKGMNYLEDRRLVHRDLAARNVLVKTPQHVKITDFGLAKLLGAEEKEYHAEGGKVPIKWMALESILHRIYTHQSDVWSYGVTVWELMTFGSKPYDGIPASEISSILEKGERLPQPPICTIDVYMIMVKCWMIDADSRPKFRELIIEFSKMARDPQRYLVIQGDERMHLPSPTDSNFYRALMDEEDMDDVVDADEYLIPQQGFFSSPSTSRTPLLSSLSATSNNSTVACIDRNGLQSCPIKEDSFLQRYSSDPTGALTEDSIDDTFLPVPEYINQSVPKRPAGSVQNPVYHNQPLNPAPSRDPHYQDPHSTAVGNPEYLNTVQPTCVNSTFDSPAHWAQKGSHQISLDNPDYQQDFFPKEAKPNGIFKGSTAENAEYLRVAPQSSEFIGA
# test.name: Z'-LYTE / Adapta kinase assay, EGFR
# Assay type: biochemical
# protocol.conditions: read-out: EGFR % Inh. @ 100 nM

Endpoint output: inhibition at 0.1 µM of CC(Nc1c(C#N)cnc2ccc(-c3cnc(N)nc3)cc12)c1ccccc1 (stereo not drawn) [Compound 53] . Value?
80 to 90%

C[C@@H](Nc1ncnc2ccc(-c3ccc4c(c3)C(=O)OC4)cc12)c1ccccc1 [Compound 136] ?
> 90%

C[C@@H](Nc1ncnc2ccc(-c3cccc(-c4nnc[nH]4)c3)cc12)c1ccccc1 [Compound 137] ?
> 90%

C[C@@H](Nc1c(C#N)cnc2ccc(-c3cnc4[nH]ncc4c3)cc12)c1ccccc1 [Compound 54R] ?
80 to 90%

CC(Nc1c(C#N)cnc2ccc(-c3cnc4[nH]ncc4c3)cc12)c1ccccc1 (stereo not drawn) [Compound 54] ?
> 90%

CC(Nc1ncnc2ccc(-c3cnc(N)nc3)cc12)c1ccc(F)cc1 (stereo not drawn) [Compound 121] ?
80 to 90%

COc1ncc(-c2ccc3ncc(C#N)c(NC(C)c4ccccc4)c3c2)cc1C#N (stereo not drawn) [Compound 126] ?
10 to 80%

CC(Nc1ncnc2ccc(-c3cnc(N)c(C(=O)N(C)C)c3)cc12)c1ccccc1 (stereo not drawn) [Compound 36] ?
10 to 80%

Cc1nc2cc(-c3ccc4ncnc(NC(C)c5ccccc5)c4c3)cnc2[nH]1 (stereo not drawn) [Compound 10] ?
80 to 90%
